Reference source: patent US20250034266A1

Target: T1, human CCR8 (human, UniProt P51685 1-355)
T1 construct: whole, on cells; In the β-arrestin assay CCR8 is fused to the ProLink (PK) tag; also called hCCR8; CHO-K1-human CCR8
T1 sequence (P51685 whole entry, the tested form may be a part): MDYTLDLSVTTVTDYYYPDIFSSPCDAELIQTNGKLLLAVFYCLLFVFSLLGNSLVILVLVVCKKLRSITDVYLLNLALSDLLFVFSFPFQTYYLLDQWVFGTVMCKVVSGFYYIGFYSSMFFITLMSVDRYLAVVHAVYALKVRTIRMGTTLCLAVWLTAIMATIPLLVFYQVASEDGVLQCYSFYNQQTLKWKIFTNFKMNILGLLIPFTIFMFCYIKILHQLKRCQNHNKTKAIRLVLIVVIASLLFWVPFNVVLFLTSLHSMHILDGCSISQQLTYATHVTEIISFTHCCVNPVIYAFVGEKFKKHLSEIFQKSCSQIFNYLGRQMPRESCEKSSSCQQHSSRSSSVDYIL
Experiment: FACS on HEK293-human CCR8 cells
observation.type: Max MFI (MFI)
# unit: MFI | format: bare number

The following binders have reported results that may help.
binder | Max MFI (MFI)
204A2G12 (antibody, V domains shown, Murine hybridoma antibody) VH: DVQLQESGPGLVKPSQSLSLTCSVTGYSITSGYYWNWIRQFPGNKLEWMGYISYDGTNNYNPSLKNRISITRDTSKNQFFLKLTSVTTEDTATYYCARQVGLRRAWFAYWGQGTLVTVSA VL: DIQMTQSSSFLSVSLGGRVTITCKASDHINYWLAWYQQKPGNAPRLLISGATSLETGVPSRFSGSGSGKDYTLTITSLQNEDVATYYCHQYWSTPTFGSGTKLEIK | 3620
164G10D6 (antibody, V domains shown, Murine hybridoma antibody; also called 164G10C6) VH: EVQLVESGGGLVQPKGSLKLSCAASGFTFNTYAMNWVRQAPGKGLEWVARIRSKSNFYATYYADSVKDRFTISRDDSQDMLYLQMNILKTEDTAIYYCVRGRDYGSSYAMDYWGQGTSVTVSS VL: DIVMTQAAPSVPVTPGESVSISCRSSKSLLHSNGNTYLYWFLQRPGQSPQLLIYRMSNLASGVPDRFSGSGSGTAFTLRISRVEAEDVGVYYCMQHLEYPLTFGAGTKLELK | 11900
262C2G7 (antibody, V domains shown, Murine hybridoma antibody) VH: DVHLQESGPGLVKPSQSLSLTCSVTGYSITSGYYWNWIRQFPGNKLEWMGYISYDGSNNYNPSLKNRISITRDISKNQFFLKLNSVTTEDTATYYCARQIGLRRGAMDYWGQGTSVTVSS VL: DIQMTQSSSYLSVSLGGRVTITCKASDHINNWLAWYQQKPGNAPRLLISGSTSLKAGVASRFSGSGSGKDYTLTITSLQTEDVATYYCQQYWGIPFTFGGGTKLEIK | 7210
273H2G6 (antibody, V domains shown, Murine hybridoma antibody) VH: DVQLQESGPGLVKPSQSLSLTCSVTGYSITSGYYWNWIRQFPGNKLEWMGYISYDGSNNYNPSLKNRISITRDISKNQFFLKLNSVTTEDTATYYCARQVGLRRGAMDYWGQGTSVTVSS VL: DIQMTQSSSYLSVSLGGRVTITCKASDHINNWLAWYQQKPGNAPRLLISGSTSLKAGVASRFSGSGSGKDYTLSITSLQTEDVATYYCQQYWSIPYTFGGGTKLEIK | 4680
160D1E3 (antibody, V domains shown, Murine hybridoma antibody) VH: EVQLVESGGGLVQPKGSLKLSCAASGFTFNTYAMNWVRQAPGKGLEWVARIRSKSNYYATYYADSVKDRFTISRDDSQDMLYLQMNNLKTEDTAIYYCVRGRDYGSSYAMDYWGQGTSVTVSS VL: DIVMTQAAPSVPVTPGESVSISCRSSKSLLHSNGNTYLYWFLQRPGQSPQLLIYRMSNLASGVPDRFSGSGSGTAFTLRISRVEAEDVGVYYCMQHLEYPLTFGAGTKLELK | 11900
348E2D11 (antibody, V domains shown, Murine hybridoma antibody) VH: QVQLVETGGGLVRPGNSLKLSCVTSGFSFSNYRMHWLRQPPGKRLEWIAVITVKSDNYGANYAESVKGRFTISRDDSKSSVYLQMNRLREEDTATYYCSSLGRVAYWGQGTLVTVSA VL: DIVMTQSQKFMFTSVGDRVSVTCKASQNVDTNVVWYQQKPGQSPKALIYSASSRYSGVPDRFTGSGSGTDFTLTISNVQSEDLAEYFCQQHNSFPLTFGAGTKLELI | 11000

Q: What measured Max MFI goes with 153D4G2 (antibody, V domains shown, Murine hybridoma antibody; also called 153D3G2; 1531D4G2) VH: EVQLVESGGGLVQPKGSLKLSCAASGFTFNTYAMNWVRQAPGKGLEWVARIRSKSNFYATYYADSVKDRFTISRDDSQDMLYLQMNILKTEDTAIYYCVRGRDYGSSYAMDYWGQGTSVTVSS VL: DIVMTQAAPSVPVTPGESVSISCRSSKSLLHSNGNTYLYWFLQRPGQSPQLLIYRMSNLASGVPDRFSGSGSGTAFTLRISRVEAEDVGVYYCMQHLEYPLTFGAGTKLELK ?
Ans: 11600

Q: What measured Max MFI goes with 191E12H8 (antibody, V domains shown, Murine hybridoma antibody) VH: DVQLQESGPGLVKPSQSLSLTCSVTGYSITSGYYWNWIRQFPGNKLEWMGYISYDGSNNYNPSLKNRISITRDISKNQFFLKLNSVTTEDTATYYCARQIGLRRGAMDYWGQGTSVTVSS VL: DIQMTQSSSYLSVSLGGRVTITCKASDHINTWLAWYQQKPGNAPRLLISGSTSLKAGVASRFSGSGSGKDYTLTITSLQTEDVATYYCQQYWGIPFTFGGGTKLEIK ?
Ans: 10700

Q: What measured Max MFI goes with 149F2C10 (antibody, V domains shown, also called 1491F2C0) VH: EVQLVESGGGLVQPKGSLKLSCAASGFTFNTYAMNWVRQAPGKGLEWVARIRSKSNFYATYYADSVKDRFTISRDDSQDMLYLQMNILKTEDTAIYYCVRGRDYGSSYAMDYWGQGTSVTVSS VL: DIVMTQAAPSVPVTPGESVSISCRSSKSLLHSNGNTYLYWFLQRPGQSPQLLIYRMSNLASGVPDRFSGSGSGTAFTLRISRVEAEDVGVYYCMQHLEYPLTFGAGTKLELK ?
Ans: 12000

Q: What measured Max MFI goes with 234G9C12 (antibody, V domains shown, Murine hybridoma antibody; also called 234G4C12) VH: DVQLQESGPGLVKPSQSLSLTCSVTGYSITSGYYWNWIRQFPGNKLEWMGYTSYDGSNNYNPSFKNRISITRDISKNQFFLKLNSVTTEDTATYYCARQIGLRRGAMDHWGQGTSVTVSS VL: DIQMTQSSSYLSVSLGGRVTITCKASDHINNWLAWYQQKPGNAPRLLISGSTSLRAGVASRFSGSGSGKDYTLTITSLQTEDVATYYCQQYWGIPFTFGGGTKLEIK ?
Ans: 9840
